meta.source: patent US20200399382A1

- tgt: T1, human IL-5 (human, UniProt P05113 20-134)
- T1 construct: also called hIL-5; recombinant human IL-5
- T1 sequence (looked up): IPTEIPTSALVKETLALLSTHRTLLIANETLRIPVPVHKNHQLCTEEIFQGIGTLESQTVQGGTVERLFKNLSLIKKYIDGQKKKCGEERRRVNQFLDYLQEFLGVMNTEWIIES
- experiment-description: SPR as described in Example 2
Here, each record is paired with measured pKd data.
Just the number, please; pKd means minus log10 of the concentration in mol/L.

Examples with answers:
binder	pKd
h5MP90C8 human IL-5 mAb (antibody, V domains shown) VH: EVQLVESGGGLVQPGGSLRLSCAASGFAFSSSFMSWVRQAPGKGLEWVSTINGNGGTYYADSMKGRFTISRDNVKSTVTLQMNSLKPEDTAVYYCAADWISGGYYFPALGYWGQGTQVTVSS VL: SYELTQSPSVSVALRQTAKITCGGDNIGSKSAQWYQQSPGQAPVLVIYADASRPSGIPERFSGSNSGNTATLTISGARAEDEADYYCQVWDTSTNAAVFGGGTHLTVL	9.88
h5MP90A9 human IL-5 mAb (antibody, V domains shown) VH: EVQLVESGGGLVQPGGSLRLSCAASGFAFSSSFMSWVRQAPGKGLEWVSTINGNGGTYYADSMKGRFTISRDNVKSTVTLQMNSLKPEDTAVYYCAADWISGGYYFPALGYWGQGTQVTVSS VL: SYELTQSPSLSVALRQTAKMTCGGNKIGSKSAQWYQQKPGQAPVLVIYADSRRPSGIPERFAGSNAGNTATLTISGAQAEDEADYYCQVWDISANAAVFGGGTHLTVL	10.08

(Q) Report pKd for h5MP90E7 human IL-5 mAb (antibody, V domains shown) VH: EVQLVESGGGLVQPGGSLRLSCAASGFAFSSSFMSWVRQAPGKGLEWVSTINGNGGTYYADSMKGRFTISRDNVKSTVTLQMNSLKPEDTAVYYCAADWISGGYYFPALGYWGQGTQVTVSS VL: SYELTQSPSVSVALRQTAKITCGGNNIGSKSAQWYQQKPGQAPVLVIYADSRRPSGIPERFSGSNSGNTATLTISGAQAEDEADYYCQVWDVSTNAAVFGGGTHLSVL please.
(A) 9.89
